System under test: ERβ (Homo sapiens)
Sequence (Q92731 whole entry): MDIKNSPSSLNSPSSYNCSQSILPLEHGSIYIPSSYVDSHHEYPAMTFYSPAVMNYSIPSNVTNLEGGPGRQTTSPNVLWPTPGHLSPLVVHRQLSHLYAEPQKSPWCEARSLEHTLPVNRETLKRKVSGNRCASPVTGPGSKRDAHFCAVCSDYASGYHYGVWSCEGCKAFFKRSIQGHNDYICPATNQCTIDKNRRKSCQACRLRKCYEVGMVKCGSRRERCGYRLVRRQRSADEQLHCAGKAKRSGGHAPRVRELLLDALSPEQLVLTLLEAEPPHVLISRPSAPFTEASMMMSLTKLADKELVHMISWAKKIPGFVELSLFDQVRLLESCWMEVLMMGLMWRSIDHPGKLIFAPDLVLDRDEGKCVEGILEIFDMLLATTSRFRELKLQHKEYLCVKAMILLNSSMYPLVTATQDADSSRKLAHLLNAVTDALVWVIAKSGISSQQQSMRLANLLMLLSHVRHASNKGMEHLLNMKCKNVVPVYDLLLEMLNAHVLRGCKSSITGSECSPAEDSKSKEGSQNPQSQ
Experiment summary: Phage ELISA / fingerprint on ER immobilized on biotinylated ERE (Examples 2.3-2.5)
Format: binding
Parameters: purchased PanVera Corporation, Madison, WI; key: semiquantitative scale of 0 to 7+; 1+: semiquantitative scale of 0 to 7+; 2+: semiquantitative scale of 0 to 7+; 3+: semiquantitative scale of 0 to 7+; 4+: semiquantitative scale of 0 to 7+; 5+: semiquantitative scale of 0 to 7+; 6+: semiquantitative scale of 0 to 7+; semiquantitative scale of 0 to 7+
Protocol conditions: ERβ and Estradiol (1 µM)
Listing: binding activity, ERβ and Estradiol of selected sequences

The examples below pair each entry with its known result.
[
  {
    "Chain sequence": "SSRCSSLLCEMLIQTKESR [Peptide 22E-β]",
    "binding activity, ERβ and Estradiol": "7+"
  },
  {
    "Chain sequence": "SSILERLLGGGSAETV [Peptide 9E-β]",
    "binding activity, ERβ and Estradiol": "7+"
  },
  {
    "Chain sequence": "SSSLGPWRLSELESR [Peptide 16b-β]",
    "binding activity, ERβ and Estradiol": "4+"
  },
  {
    "Chain sequence": "SSVASREWWVRELSR [Peptide 15t-β]",
    "binding activity, ERβ and Estradiol": "2+"
  }
]

Enquiry: Quickly give me recorded binding activity, ERβ and Estradiol for SSVFTIMDGKVALSR [Peptide 1t-β]
Return: 2+

Enquiry: Quickly give me recorded binding activity, ERβ and Estradiol for SSLQAGSWLMHYLRGGDSR [Peptide 23E-β]
Return: 7+

Enquiry: Quickly give me recorded binding activity, ERβ and Estradiol for SSTRLMCWLGSADTSHCSR [Peptide 28E-β]
Return: 7+

Enquiry: Quickly give me recorded binding activity, ERβ and Estradiol for SSPGSREWFKDMLSR [Peptide 14t-β]
Return: 2+

Enquiry: Quickly give me recorded binding activity, ERβ and Estradiol for SSWPNPTFWERQLSR [Peptide 3b-β]
Return: 2+
